Reference source for all entries: patent US20230046828A1

# tgt: T1, RAGE-Fc chimera protein (BioTechne, 1145-RG) (UniProt Q15109 24-344)
# T1 construct: Bought reagent; also called Fc-RAGE; not shown: CH domain of IgG (Fc)
# assay_summary: BLI: RAGE-Fc on AHC sensors, HMGB1 construct 0-25 µM in solution; kinetics plot
property_measured: Kd (nM)
Please respond with the number in nM and leave the unit unwritten.

Known results for binders:
• non-oxidizable 3S-HMGB1, full-length (1-214) (ligand, Biotinylated (c022) in BLI with CXCL12, His6-tagged in the reverse peptide array; also called 3S-FL HMGB1 (c022)) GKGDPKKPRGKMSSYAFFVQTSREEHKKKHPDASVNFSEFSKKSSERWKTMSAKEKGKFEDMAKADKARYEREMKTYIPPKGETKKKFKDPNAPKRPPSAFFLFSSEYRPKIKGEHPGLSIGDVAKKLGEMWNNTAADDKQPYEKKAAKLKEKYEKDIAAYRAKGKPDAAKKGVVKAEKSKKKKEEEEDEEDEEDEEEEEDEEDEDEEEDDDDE = 900
• DS-HMGB1 1-164 (ligand, oxidized Box A (disulfide Cys 22-Cys 44)) GKGDPKKPRGKMSSYAFFVQTCREEHKKKHPDASVNFSEFSKKCSERWKTMSAKEKGKFEDMAKADKARYEREMKTYIPPKGETKKKFKDPNAPKRPPSAFFLFCSEYRPKIKGEHPGLSIGDVAKKLGEMWNNTAADDKQPYEKKAAKLKEKYEKDIAAYRAK = 900
• DS Box A 1-88 (full HMG Box construct with flanking regions) (ligand, oxidized (disulfide Cys 22-Cys 44), also called oxidized Box A alone) GKGDPKKPRGKMSSYAFFVQTCREEHKKKHPDASVNFSEFSKKCSERWKTMSAKEKGKFEDMAKADKARYEREMKTYIPPKGETKKKF = 15600
• fully-reduced HMGB1, full-length (1-214) (ligand, cysteines reduced (Cys 22, Cys 44, Cys 105), Tags differ by assay: biotinylated (c011) in BLI with CXCL12, His6-tagged in the reverse peptide array, TEV-cleaved in the RAGE ELISA and BLI; also called FR-HMGB1; FR FL-HMGB1 (c011)) GKGDPKKPRGKMSSYAFFVQTCREEHKKKHPDASVNFSEFSKKCSERWKTMSAKEKGKFEDMAKADKARYEREMKTYIPPKGETKKKFKDPNAPKRPPSAFFLFCSEYRPKIKGEHPGLSIGDVAKKLGEMWNNTAADDKQPYEKKAAKLKEKYEKDIAAYRAKGKPDAAKKGVVKAEKSKKKKEEEEDEEDEEDEEEEEDEEDEDEEEDDDDE = 800

Okay, now this binder:
Query string: What value of Kd has been reported for the following binder? disulfide HMGB1, full-length (ligand, disulfide bond between Cys 22 and Cys 44, also called DS-HMGB1; FL-DS-HMGB1) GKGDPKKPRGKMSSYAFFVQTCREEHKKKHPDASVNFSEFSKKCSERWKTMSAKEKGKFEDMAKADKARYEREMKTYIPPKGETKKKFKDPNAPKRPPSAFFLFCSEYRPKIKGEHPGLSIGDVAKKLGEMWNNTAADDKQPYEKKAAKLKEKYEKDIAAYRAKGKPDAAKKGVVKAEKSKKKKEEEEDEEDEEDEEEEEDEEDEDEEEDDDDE
Result string: 200
